target: IDO1 (Homo sapiens, UniProt P14902); experiment: IDO1 Cellular Assay in HeLa Cells Stimulated with IFNγ; assay type: cell-based; details: read-out: HeLa Cell Potency, IC50
Sequence (P14902 whole entry): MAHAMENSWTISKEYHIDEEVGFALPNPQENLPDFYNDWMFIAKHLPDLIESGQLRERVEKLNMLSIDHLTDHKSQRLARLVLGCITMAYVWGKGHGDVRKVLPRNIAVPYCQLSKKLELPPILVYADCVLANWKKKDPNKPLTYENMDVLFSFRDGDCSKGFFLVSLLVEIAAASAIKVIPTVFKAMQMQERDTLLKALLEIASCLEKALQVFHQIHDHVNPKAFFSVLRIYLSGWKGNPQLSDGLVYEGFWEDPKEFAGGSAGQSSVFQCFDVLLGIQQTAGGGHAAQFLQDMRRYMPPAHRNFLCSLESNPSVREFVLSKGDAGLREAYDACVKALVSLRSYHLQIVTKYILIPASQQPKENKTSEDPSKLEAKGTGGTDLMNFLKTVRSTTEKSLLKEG
quantity.measured: IC50 (nM)
Your answer should be a plain number; it is taken to be in nM.

// Cc1cccc(N2CCN(C(=O)Cn3nc(C(=O)N4CCC(O)C(F)C4)c4c3C[C@H]3C[C@@H]43)C3(CC3)C2)c1C (stereo in doubt) : IC50 value = 3.01

// COc1cc(F)cc(N2CCN(C(=O)Cn3nc(C(=O)N4C[C@@H](C)O[C@@H](C)C4)c4c3CCC4)CC2)c1 : IC50 value = 55.5

// Cc1cccc(N2CCN(C(=O)Cn3nc(C(=O)N4CC[C@H](O)[C@H](C)C4)c4c3CCC4)CC2)c1C [Example 107] : IC50 value = 1.2

* * *

biological target: IDO1 (Homo sapiens, UniProt P14902); assay: IDO1 Cellular Assay in HeLa Cells Stimulated with IFNγ; assay type: cell-based; conditions: read-out: HeLa Cell Potency, IC50
pIC50: −log10 of the molar value.
Criterion: pIC50 meeting or surpassing 8. Met: Fulfilled. Not met: Not fulfilled.

Qu. Kindly determine if pIC50 recorded for Cc1cccc(N2CCN(C(=O)Cn3nc(C(=O)N4CCC5(CCOC5=O)CC4)c4c3CCC4)CC2)c1C [Example 146] is above or exactly 8.
Ans. Fulfilled

Qu. Kindly determine if pIC50 recorded for Cc1cc(N2CCN(C(=O)Cn3nc(C(=O)N4C[C@@H](C)O[C@@H](C)C4)c4c3CCC4)CC2)cc(C)c1Cl [Example 40] is above or exactly 8.
Ans. Not fulfilled

Qu. Kindly determine if pIC50 recorded for Cc1ccc(N2CCN(C(=O)Cn3nc(C(=O)N4C[C@@H](C)O[C@@H](C)C4)c4c3CCC4)CC2)cc1F [Example 64] is above or exactly 8.
Ans. Not fulfilled

Qu. Kindly determine if pIC50 recorded for Cc1cccc(N2CCN(C(=O)Cn3nc(C(=O)N4CC[C@H](O)[C@H](F)C4)c4c3C(O)CCC4)CC2)c1C (single isomer, unassigned) [Example 25] is above or exactly 8.
Ans. Not fulfilled

Qu. Kindly determine if pIC50 recorded for O=C(Cn1nc(C(=O)N2CC[C@H](O)[C@H](F)C2)c2c1CCC2)N1CCN(C2CCc3ccccc32)CC1 (mixture of isomers) [Example 438] is above or exactly 8.
Ans. Not fulfilled

Continuing:
Qu. Kindly determine if pIC50 recorded for Cc1cccc(N2CCN(C(=O)Cn3nc(C(=O)N4CCC(O)C(CO)C4)c4c3C[C@H]3C[C@@H]43)CC2)c1C (stereo partly shown) [Example 264] is above or exactly 8.
Ans. Fulfilled

Qu. Kindly determine if pIC50 recorded for Cc1cccc(N2CCN(C(=O)Cn3nc(C(=O)N4CCC(F)(CO)CC4)c4c3CCC4)CC2)c1C [Example 102] is above or exactly 8.
Ans. Fulfilled

* * *

molecular target: IDO1 (Homo sapiens, UniProt P14902); assay: IDO1 Human Whole blood Assay; format: cell-based; set-up: Human whole blood was drawn in sodium heparin coated tubes from healthy internal donors; from tissue; host or cells: human whole blood from healthy donors, stimulated with LPS and IFNγ; details: LPS and IFNγ stimulated, 18 h, read-out: Human Whole Blood Potency, IC50
# reported IC50; entries follow
Show the value, then the unit it is measured in.

Worked examples follow.
// Cc1cccc(N2CCN(C(=O)Cn3nc(C(=O)N4CC[C@@H](O)C(F)(F)C4)c4c3CCC4)CC2)c1C (single isomer, unassigned) [Example 202] : IC50 value = 516 nM

// Cc1c(N2CCN(C(=O)Cn3nc(C(=O)N4CC[C@@H](O)[C@@H](F)C4)c4c3C[C@H]3C[C@@H]43)CC2)cccc1C(F)(F)F [Example 339] : IC50 value = 229 nM

Attention now turns to another entry.
// Cc1cccc(N2CCN(C(=O)Cn3nc(C(=O)N4CC[C@H](O)[C@H](F)C4)c4c3C[C@H]3C[C@@H]43)C(C)(C)C2)c1C [Example 331] : IC50 value = 9120 nM
